# STUDY TARGET: T1, rat α-CGRP (Rattus norvegicus, UniProt P01256)
# T1 construct: rat α (1-37); purchased GenScript Corporation or Global Peptide Services
# T1 sequence (P01256 83-119 limits assumed): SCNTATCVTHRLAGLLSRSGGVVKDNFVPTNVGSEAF
# METHOD NOTES: Biacore SPR affinity of Fab fragments to N-biotinylated rat α-CGRP on SA chip
# Format: binding
# CONDITION INFO: 37° C., screening mode except underlined values
# Method: Affinity determination of the Fabs. Affinities of the anti-CGRP monoclonal antibodies were determined at either 25° C. or 37° C. using the BIACORE3000™ surface plasmon resonance (SPR) system (Biacore, INC, Piscataway N.J.) with the manufacture's own running buffer, HBS-EP (10 mM HEPES pH 7.4, 150 mM NaCl, 3 mM EDTA, 0.005% v/v polysorbate P20). […] Global equilibrium dissociation constants (KD) or “affinities” were calculated from the ratio KD=koff/kon. […]
Below, each entry is listed with its recorded α-rat koff.
Just the number please, in s⁻¹, no unit attached.

Examples from the recorded data:
*Q* Fill in the blank: the reported α-rat koff of M70: G1 variant; L1 R28N T30G; L2 L561; H2 E54K A57S; HC-FW3 L99T A100V (antibody, V domains shown) VH: EVQLVESGGGLVQPGGSLRLSCAASGFTFSNYWISWVRQAPGKGLEWVAEIRSKSDSSATHYAEAVKGRFTISRDNAKNSLYLQMNSLRAEDTAVYYCTVYFDYGLAIQNYWGQGTLVTVSS VL: EIVLTQSPATLSLSPGERATLSCKASKNVGTYVSWYQQKPGQAPRLLIYGASNRYIGIPARFSGSGSGTDFTLTISSLEPEDFAVYYCSQSYNYPYTFGQGTKLEIK is ____.
*A* 0.00607

*Q* What do you have for M29: G1 variant; L1 R28N T30G; HC-FW3 L99T A100V (antibody, V domains shown) VH: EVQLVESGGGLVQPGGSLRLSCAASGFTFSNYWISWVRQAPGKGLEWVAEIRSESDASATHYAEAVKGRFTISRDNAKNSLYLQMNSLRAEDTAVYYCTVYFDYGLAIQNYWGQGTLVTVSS VL: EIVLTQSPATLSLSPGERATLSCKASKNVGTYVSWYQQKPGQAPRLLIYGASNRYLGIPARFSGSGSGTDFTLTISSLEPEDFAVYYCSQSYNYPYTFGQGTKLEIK ?
*A* 0.00359

*Q* What do you have for M76: G1 variant; L1 R28N T30S; L2 G50A L56T; H2 A57G; HC-FW3 L99T A100V (antibody, V domains shown) VH: EVQLVESGGGLVQPGGSLRLSCAASGFTFSNYWISWVRQAPGKGLEWVAEIRSESDGSATHYAEAVKGRFTISRDNAKNSLYLQMNSLRAEDTAVYYCTVYFDYGLAIQNYWGQGTLVTVSS VL: EIVLTQSPATLSLSPGERATLSCKASKNVSTYVSWYQQKPGQAPRLLIYAASNRYTGIPARFSGSGSGTDFTLTISSLEPEDFAVYYCSQSYNYPYTFGQGTKLEIK ?
*A* 0.00116

*Q* What do you have for M47: G1 variant; L1 R28N; L2 G50A L56T; H2 E54K A57N S58G; HC-FW3 L99T A100V (antibody, V domains shown) VH: EVQLVESGGGLVQPGGSLRLSCAASGFTFSNYWISWVRQAPGKGLEWVAEIRSKSDNGATHYAEAVKGRFTISRDNAKNSLYLQMNSLRAEDTAVYYCTVYFDYGLAIQNYWGQGTLVTVSS VL: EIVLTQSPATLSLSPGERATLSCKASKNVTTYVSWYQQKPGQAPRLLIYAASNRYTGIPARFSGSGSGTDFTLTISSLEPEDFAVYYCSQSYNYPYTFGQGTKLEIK ?
*A* 0.00823

*Q* What do you have for M59: G1 variant; L1 R28N T30D; L2 L56S; H2 E54K A57N S58N H61F; HC-FW3 L99T A100V (antibody, V domains shown) VH: EVQLVESGGGLVQPGGSLRLSCAASGFTFSNYWISWVRQAPGKGLEWVAEIRSKSDNNATFYAEAVKGRFTISRDNAKNSLYLQMNSLRAEDTAVYYCTVYFDYGLAIQNYWGQGTLVTVSS VL: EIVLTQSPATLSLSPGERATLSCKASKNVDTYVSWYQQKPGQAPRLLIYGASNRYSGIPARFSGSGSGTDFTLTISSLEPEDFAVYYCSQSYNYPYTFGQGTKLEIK ?
*A* 0.0123

More entries:
*Q* Fill in the blank: the reported α-rat koff of M30: G1 variant; L1 R28N T30G; H2 E54K A57E; HC-FW3 L99T A100V (antibody, V domains shown) VH: EVQLVESGGGLVQPGGSLRLSCAASGFTFSNYWISWVRQAPGKGLEWVAEIRSKSDESATHYAEAVKGRFTISRDNAKNSLYLQMNSLRAEDTAVYYCTVYFDYGLAIQNYWGQGTLVTVSS VL: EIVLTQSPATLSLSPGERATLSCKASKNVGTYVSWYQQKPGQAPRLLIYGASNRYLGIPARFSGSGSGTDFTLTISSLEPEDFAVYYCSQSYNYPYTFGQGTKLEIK is ____.
*A* 0.00638

*Q* What do you have for M51: G1 variant; L1 R28N; L2 L561; H2 E54K A57G; HC-FW3 L99T A100V (antibody, V domains shown) VH: EVQLVESGGGLVQPGGSLRLSCAASGFTFSNYWISWVRQAPGKGLEWVAEIRSKSDGSATHYAEAVKGRFTISRDNAKNSLYLQMNSLRAEDTAVYYCTVYFDYGLAIQNYWGQGTLVTVSS VL: EIVLTQSPATLSLSPGERATLSCKASKNVTTYVSWYQQKPGQAPRLLIYGASNRYIGIPARFSGSGSGTDFTLTISSLEPEDFAVYYCSQSYNYPYTFGQGTKLEIK ?
*A* 0.00118

*Q* What do you have for M28: G1 variant; L1 R28N T30D; H2 E54R A57N; HC-FW3 L99T A100V (antibody, V domains shown) VH: EVQLVESGGGLVQPGGSLRLSCAASGFTFSNYWISWVRQAPGKGLEWVAEIRSRSDNSATHYAEAVKGRFTISRDNAKNSLYLQMNSLRAEDTAVYYCTVYFDYGLAIQNYWGQGTLVTVSS VL: EIVLTQSPATLSLSPGERATLSCKASKNVDTYVSWYQQKPGQAPRLLIYGASNRYLGIPARFSGSGSGTDFTLTISSLEPEDFAVYYCSQSYNYPYTFGQGTKLEIK ?
*A* 0.00125

*Q* What do you have for M43: G1 variant; L1 R28N; L2 G50A L56T; H2 E54K A57N S58C; HC-FW3 L99T A100V (antibody, V domains shown) VH: EVQLVESGGGLVQPGGSLRLSCAASGFTFSNYWISWVRQAPGKGLEWVAEIRSKSDNCATHYAEAVKGRFTISRDNAKNSLYLQMNSLRAEDTAVYYCTVYFDYGLAIQNYWGQGTLVTVSS VL: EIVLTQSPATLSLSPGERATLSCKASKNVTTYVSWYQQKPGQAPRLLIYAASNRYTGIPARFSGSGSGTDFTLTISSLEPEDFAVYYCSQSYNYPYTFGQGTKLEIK ?
*A* 0.00453
